Provide the recorded MIC for the entries that follow.
System: P. aeruginosa (ΔmexAB-oprM)
Assay: microbe, parasite or virus in culture
Format: cell-based
Conditions: Pseudomonas aeruginosa, read-out: MIC P. aeruginosa ΔmexAB-OprM

Kindly give each listed record's MIC.
1. CC(=O)NCCN1CCN(C(=O)NC(C(=O)N[C@H]2Cc3ccc(F)c(C(=O)O)c3OB2O)c2ccc(O)c(O)c2Cl)C(=O)C1=O (stereo partly drawn) [Example 243]
2. C[C@H]1CN(CCN)C(=O)C(=O)N1C(=O)NC(C(=O)N[C@H]1Cc2cccc(C(=O)O)c2OB1O)c1ccc(O)c(O)c1Cl (stereo partly drawn) [Example 248]
3. CCN1CCN(C(=O)NC(C(=O)N[C@H]2Cc3cccc(C(=O)O)c3OB2O)c2ccc(O)c([N+](=O)[O-])c2)C(=O)C1=O (stereo partly drawn) [Example 247]
4. NS(=O)(=O)c1ccc([C@@H](NC(=O)N2CCN(CCBr)C(=O)C2=O)C(=O)N[C@H]2Cc3cccc(C(=O)O)c3OB2O)cc1O [Example 172]
5. NCCCN1CCN(C(=O)NC(C(=O)N[C@H]2Cc3cccc(C(=O)O)c3OB2O)c2ccc(O)c(O)c2Cl)C(=O)C1=O (stereo partly drawn) [Example 233]
6. CS(=O)(=O)NCCN1CCN(C(=O)NC(C(=O)N[C@H]2Cc3cccc(C(=O)O)c3OB2O)c2ccc(O)c(O)c2Cl)C(=O)C1=O (stereo partly drawn) [Example 229]

Given back:
1. < 0.25 µg/mL
2. < 0.25 µg/mL
3. 8 to 16 µg/mL
4. 2 to 4 µg/mL
5. < 0.25 µg/mL
6. < 0.25 µg/mL

###

Provide the recorded EC50 for the entries that follow.
Target: E. coli PBP1b (Escherichia coli (strain K12))
Sequence (P02919 whole entry): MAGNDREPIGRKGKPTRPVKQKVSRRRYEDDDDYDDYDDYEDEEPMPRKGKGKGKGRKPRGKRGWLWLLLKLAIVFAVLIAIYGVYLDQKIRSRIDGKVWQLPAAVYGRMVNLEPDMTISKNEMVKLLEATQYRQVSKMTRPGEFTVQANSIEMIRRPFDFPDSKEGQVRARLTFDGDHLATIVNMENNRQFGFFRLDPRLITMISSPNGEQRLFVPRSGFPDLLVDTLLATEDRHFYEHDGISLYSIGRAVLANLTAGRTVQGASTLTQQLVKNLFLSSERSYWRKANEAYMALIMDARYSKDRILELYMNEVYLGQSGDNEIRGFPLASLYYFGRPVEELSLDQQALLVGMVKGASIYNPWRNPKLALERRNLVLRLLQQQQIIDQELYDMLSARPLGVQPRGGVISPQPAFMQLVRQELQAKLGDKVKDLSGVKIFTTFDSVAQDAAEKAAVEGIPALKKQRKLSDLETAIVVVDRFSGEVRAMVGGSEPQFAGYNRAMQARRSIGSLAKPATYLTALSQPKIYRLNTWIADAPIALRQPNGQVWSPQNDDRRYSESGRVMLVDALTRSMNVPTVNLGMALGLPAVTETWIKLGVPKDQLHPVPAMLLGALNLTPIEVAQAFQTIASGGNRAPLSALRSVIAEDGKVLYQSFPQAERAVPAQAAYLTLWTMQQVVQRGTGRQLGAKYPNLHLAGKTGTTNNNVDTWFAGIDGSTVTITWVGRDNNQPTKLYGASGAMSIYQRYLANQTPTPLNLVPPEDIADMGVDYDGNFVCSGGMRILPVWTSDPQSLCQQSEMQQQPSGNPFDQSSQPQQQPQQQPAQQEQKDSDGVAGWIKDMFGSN
Assay: Radioligand competition binding assay with 14C-labeled boronic acid probe, PBP1b

Recorded EC50, per entry:
{"compound": "CCN1CCN(C(=O)NC(C(=O)N[C@H]2Cc3cccc(C(=O)O)c3OB2O)c2ccccn2)C(=O)C1=O (stereo partly shown)", "EC50": "> 100 µM"}
{"compound": "CCN1CCN(C(=O)NC(CC(=O)N[C@H]2Cc3cccc(C(=O)O)c3OB2O)c2cc(O)c(O)c(Cl)c2)C(=O)C1=O (stereo partly shown)", "EC50": "10 to 100 µM"}
{"compound": "CCN1CCN(C(=O)NC(C(=O)N[C@H]2Cc3cccc(C(=O)O)c3OB2O)c2csc(N)n2)C(=O)C1=O (stereo partly shown)", "EC50": "< 10 µM"}

Here is another compound to look at.
Asked: Field request: EC50 | item: CCN1CCN(C(=O)NC(C(=O)N[C@H]2Cc3cccc(C(=O)O)c3OB2O)c2cccc(O)n2)C(=O)C1=O (stereo partly shown)
Given back: > 100 µM

###

Provide the recorded MIC for the entries that follow.
Tested on: E. coli AG100
Test: Broth microdilution MIC, E. coli AG100 (wild-type parent)
Type: cell-based
Conditions: Escherichia coli; wild-type parent E. coli AG100, broth microdilution; read-out: MIC E. coli AG100

{"compound": "CCN1CCN(C(=O)NC(C(=O)N[C@H]2Cc3ccc(F)c(C(=O)O)c3OB2O)c2cccnc2)C(=O)C1=O (some centres unmarked)", "result": "> 128 µg/mL"}
{"compound": "CCN1CCN(C(=O)N[C@@H](C)C(=O)N[C@H]2Cc3cccc(C(=O)O)c3OB2O)C(=O)C1=O", "result": "> 128 µg/mL"}
{"compound": "CCN1C[C@H](CCN)N(C(=O)NC(C(=O)N[C@H]2Cc3ccc(F)c(C(=O)O)c3OB2O)c2ccc(O)c(O)c2Cl)C(=O)C1=O (some centres unmarked)", "result": "2 to 4 µg/mL"}
{"compound": "CCN1CCN(C(=O)N[C@@H](C(=O)N[C@H]2Cc3ccc(F)c(C(=O)O)c3OB2O)c2ccc(O)c(F)c2)C(=O)C1=O", "result": "> 128 µg/mL"}

Kindly give each listed record's MIC.
1. O=C(O)c1cccc2c1OB(O)[C@@H](NC(=O)C(NC(=O)N1C[C@H]3CCCN3C(=O)C1=O)c1ccc(O)c(O)c1Cl)C2 (some centres unmarked)
2. CNCCN1CCN(C(=O)NC(C(=O)N[C@H]2Cc3cccc(C(=O)O)c3OB2O)c2ccc(O)c(O)c2Cl)C(=O)C1=O (some centres unmarked)
3. NCCN1CCN(C(=O)N[C@@H](C(=O)N[C@H]2Cc3ccc(F)c(C(=O)O)c3OB2O)c2ccc(O)c(O)c2Cl)C(=O)C1=O
4. NCCCN1CCN(C(=O)N[C@@H](C(=O)N[C@H]2Cc3cccc(C(=O)O)c3OB2O)c2ncc(O)cc2F)C(=O)C1=O
5. CCN1CCN(C(=O)NC(C(=O)N[C@H]2Cc3cccc(C(=O)O)c3OB2O)c2ccc(O)c(O)c2)C(=O)C1=O (some centres unmarked)
6. CCN1CCN(C(=O)NC(C(=O)N[C@H]2Cc3c(F)cc(F)c(C(=O)O)c3OB2O)c2ccc(O)c(O)c2Cl)C(=O)C1=O (some centres unmarked)
7. CCN1CCN(C(=O)NC(C(=O)N[C@H]2Cc3cccc(C(=O)O)c3OB2O)c2ncc(OC(C)=O)cc2F)C(=O)C1=O (some centres unmarked)
8. CCN1CCN(C(=O)NC(C(=O)N[C@H]2Cc3cccc(C(=O)O)c3OB2O)c2ccc(S(N)(=O)=O)cc2)C(=O)C1=O (some centres unmarked)

Given back:
1: 8 to 16 µg/mL; 2: 2 to 4 µg/mL; 3: < 0.25 µg/mL; 4: 8 to 16 µg/mL; 5: 8 to 16 µg/mL; 6: 2 to 4 µg/mL; 7: 8 to 16 µg/mL; 8: 8 to 16 µg/mL

Kindly give each listed record's MIC.
1. CCN1CCN(C(=O)NC(C(=O)N[C@H]2Cc3ccc(F)c(C(=O)O)c3OB2O)c2ccc(O)cn2)C(=O)C1=O (some centres unmarked)
2. C[C@H]1CN(CCO)C(=O)C(=O)N1C(=O)NC(C(=O)N[C@H]1Cc2cccc(C(=O)O)c2OB1O)c1ccc(O)c(O)c1Cl (some centres unmarked)
3. CCCN1CCN(C(=O)NC(C(=O)N[C@H]2Cc3cccc(C(=O)O)c3OB2O)c2ccc(O)cn2)C(=O)C1=O (some centres unmarked)
4. O=C(O)c1cccc2c1OB(O)[C@@H](NC(=O)C(NC(=O)N1CCN(CCF)C(=O)C1=O)c1ncc(O)cc1F)C2 (some centres unmarked)

Given back:
["8 to 16 µg/mL", "2 to 4 µg/mL", "32 to 64 µg/mL", "8 to 16 µg/mL"]

Kindly give each listed record's MIC.
1. CCN1CCN(C(=O)NC(C(=O)N[C@H]2Cc3cccc(C(=O)O)c3OB2O)c2ccc(C(N)=O)cc2)C(=O)C1=O (some centres unmarked)
2. O=C(O)c1c(F)ccc2c1OB(O)[C@@H](NC(=O)C(NC(=O)N1CCN(CCF)C(=O)C1=O)c1ncc(O)cc1F)C2 (some centres unmarked)
3. CCN1C[C@@H](C)N(C(=O)NC(C(=O)N[C@H]2Cc3cccc(C(=O)O)c3OB2O)c2ncc(O)cc2F)C(=O)C1=O (some centres unmarked)
4. NC(=O)c1ccc(C(NC(=O)N2CCN(CCF)C(=O)C2=O)C(=O)N[C@H]2Cc3cccc(C(=O)O)c3OB2O)cc1 (some centres unmarked)
5. CCN1CCN(C(=O)N[C@@H](C(=O)N[C@H]2Cc3cccc(C(=O)O)c3OB2O)c2ccc(O)c(O)c2)C(=O)C1=O
6. CC[C@H]1CN(CC)C(=O)C(=O)N1C(=O)NC(C(=O)N[C@H]1Cc2cccc(C(=O)O)c2OB1O)c1ncc(O)cc1F (some centres unmarked)
7. O=C(O)c1c(F)ccc2c1OB(O)[C@@H](NC(=O)C(NC(=O)N1CCN(CCF)C(=O)C1=O)c1ccc(O)c(O)c1Cl)C2 (some centres unmarked)
8. CCN1CCN(C(=O)NC(C(=O)N[C@H]2Cc3cccc(C(=O)O)c3OB2O)c2ncc(O)cc2F)C(=O)C1=O (some centres unmarked)

Given back:
1. 8 to 16 µg/mL
2. 8 to 16 µg/mL
3. > 128 µg/mL
4. 8 to 16 µg/mL
5. 8 to 16 µg/mL
6. 32 to 64 µg/mL
7. 8 to 16 µg/mL
8. 8 to 16 µg/mL

Kindly give each listed record's MIC.
1. NS(=O)(=O)c1ccc([C@H](NC(=O)N2CCN(CCBr)C(=O)C2=O)C(=O)N[C@H]2Cc3cccc(C(=O)O)c3OB2O)cc1O
2. CCN1CCN(C(=O)NC(C(=O)N[C@H]2Cc3ccc(F)c(C(=O)O)c3OB2O)c2ccc(O)c(O)c2Cl)C(O)C1=O (some centres unmarked)

Given back:
1. 32 to 64 µg/mL
2. 8 to 16 µg/mL
